Test system: Strep. pheumoniae SV-1
Assay: median protective dose in mice given lethal systemic infections, Strep. pneumoniae SV-1
Format: in vivo
Details: Streptococcus pneumoniae, SV1, SC, single dose at time of challenge, read-out: median protective dose (PD50)
I'd appreciate it if you could supply ED50 values for the items below.
Answer with a number only, understood to be in mg/kg.

Field request: ED50 | item: "CCN[C@@H](C)[C@@H]1CCN(c2nc3c(cc2F)c(=O)c(C(=O)O)cn3-c2ccc(F)cc2F)C1" 2

Moving on to the next molecule: "C[C@H]([C@@H]1CCN(c2nc3c(cc2F)c(=O)c(C(=O)O)cn3C2CC2)C1)N(C)C" 2

Moving on to the next molecule: "C[C@H](N)[C@@H]1CCN(c2cc3c(cc2F)c(=O)c(C(=O)O)cn3C2CC2)C1" 0.7

Moving on to the next molecule: "C[C@H](N)[C@H]1CCN(c2cc3c(cc2F)c(=O)c(C(=O)O)cn3C2CC2)C1" 12
